Assay: LD50 values in mice
Conditions: mouse, in vivo; TABLE V
reported metric: LD50

{"columns": ["mol", "observed"],
 "data": [
  ["CN(C)Cc1nnc2n1-c1ccc(Cl)cc1C(c1ccccc1Cl)=NC2", "> 100 mg/kg"],
  ["CN(C)Cc1nnc2n1-c1ccccc1C(c1ccccc1Cl)=NC2", "> 100 mg/kg"],
  ["NCc1nnc2n1-c1ccc(Cl)cc1C(c1ccccc1)=NC2", "> 100 mg/kg"]
]}

* * *

Experiment: in vivo
Settings: mouse, in vivo, ip
Counter-ions that a name gives are not always drawn.
reported metric: LD50 (mg/kg)

{"columns": ["compound", "observed"],
 "data": [
  ["COC(=O)[C@@H]1[C@H]2C[C@H]3c4[nH]c5ccccc5c4CCN3C[C@@H]2CC[C@@H]1O [yohimbine hydrochloride]", 45]
]}
